- MEASURED TARGET: T1, 4H331-bA
- T1 chain: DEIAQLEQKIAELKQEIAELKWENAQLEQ
- EXPERIMENT SUMMARY: two-hybrid library CCNG1;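 further: natural log of median RNA to DNA barcode read ratio; higher means stronger binding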
Note to self: interaction score under -0.2 means satisfied, ties and anything higher get not satisfied.

BINDER | CLASSIFICATION
DEIAQLEQKIAELKQEIAELKWENAQLEQ [4H331-bA] | satisfied
DKIAQLKQEIAELEQKNAELKWEIAQLKQ [4H2618-bA] | not satisfied
DKIAQLKQENAELEQKIAELKWEIAQLEQ [4H2729-bA] | satisfied
DKIAQLKQEIAELEQEIAELKWKNAQLKQ [4H2576-bA] | not satisfied
DEIAQLEQENAELKQKIAELKWENAQLEQ [4H235-bA] | satisfied

// data source = paper PMC10397247
